# Tested Target: CYP3A4 (Homo sapiens, UniProt P08684)
# Sequence (P08684 whole entry): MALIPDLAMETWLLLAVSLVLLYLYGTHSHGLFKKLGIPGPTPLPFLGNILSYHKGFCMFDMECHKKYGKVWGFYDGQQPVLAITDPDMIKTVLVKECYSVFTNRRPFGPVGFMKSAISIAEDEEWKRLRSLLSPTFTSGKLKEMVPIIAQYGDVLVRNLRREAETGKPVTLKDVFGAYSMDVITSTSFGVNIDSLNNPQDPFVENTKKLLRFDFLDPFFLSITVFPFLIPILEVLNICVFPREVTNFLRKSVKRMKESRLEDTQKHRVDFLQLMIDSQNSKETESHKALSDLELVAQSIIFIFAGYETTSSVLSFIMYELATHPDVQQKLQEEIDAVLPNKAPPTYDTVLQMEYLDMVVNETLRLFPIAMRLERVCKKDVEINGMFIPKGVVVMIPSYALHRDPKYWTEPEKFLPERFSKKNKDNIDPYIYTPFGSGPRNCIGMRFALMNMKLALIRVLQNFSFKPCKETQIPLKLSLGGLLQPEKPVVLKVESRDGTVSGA
# Assay Remarks: biochemical
# Measurement Conditions: CYP3A4 IC50 (half-maximal inhibitory concentration)
pIC50: −log10 of the molar value. Counter-ions that a name gives are not always drawn.
Endpoint: pIC50

1) Nc1ccc(N)c2c1C(=O)c1ccccc1C2=O [1,4-Diaminoanthraquinone] : 5.29
2) COC(=O)N(C(=O)N1COC2(C(=O)OC)Cc3cc(Cl)ccc3C2=N1)c1ccc(OC(F)(F)F)cc1 (racemic) [(+-)-Indoxacarb] : 5.22
3) Clc1ccc(C2(Cn3cncn3)CC(Br)CO2)c(Cl)c1 (centres unmarked) [Bromuconazole] : 7.10
4) CC(C)(C)C(O)C(Oc1ccc(-c2ccccc2)cc1)n1cncn1 (centres unmarked) [Bitertanol] : 6.17
5) Brc1c2ccccc2cc2ccccc12 [9-Bromoanthracene] : 4.60
6) OC(Cn1cncn1)(c1ccc(F)cc1)c1ccccc1F (centres unmarked) [Flutriafol] : 6.62
7) O=C1c2ccccc2Cc2ccccc21 [Anthrone] : 4.57
8) CCNP(=S)(OC)O/C(C)=C/C(=O)OC(C)C (centres unmarked) [Propetamphos] : 5.98
9) COP(N)(=S)Oc1ccccc1C(=O)OC(C)C (centres unmarked) [Isocarbophos] : 5.79
10) CCOP(=S)(NC(C)C)Oc1ccccc1C(=O)OC(C)C (centres unmarked) [Isofenphos] : 6.17
11) CCCCN1CCCC[C@H]1C(=O)Nc1c(C)cccc1C [Levobupivacaine hydrochloride] : 5.02
12) OC(Cc1ccccc1Cl)(Cn1nc[nH]c1=S)C1(Cl)CC1 (centres unmarked) [Prothioconazole] : 5.10
13) OC(c1ccc(F)cc1)(c1cncnc1)c1ccccc1Cl (centres unmarked) [Nuarimol] : 6.51
14) CCC1COC(Cn2cncn2)(c2ccc(Cl)cc2Cl)O1 (centres unmarked) [Etaconazole] : 7.00
15) CC(C)(C)[C@@H](O)[C@@H](Cc1ccc(Cl)cc1)n1cncn1 (racemic) [Paclobutrazol] : 6.85
16) C=CC(=O)OCC(CO)(COC(=O)C=C)COC(=O)C=C [Pentaerythritol triacrylate] : 6.03
17) OC(c1ccc(Cl)cc1)(c1cncnc1)c1ccccc1Cl (centres unmarked) [Fenarimol] : 6.77
18) COP(=S)(OC)Oc1ccc([N+](=O)[O-])c(C)c1 [Fenitrothion] : 5.07
19) C#CCOS(=O)OC1CCCCC1Oc1ccc(C(C)(C)C)cc1 (centres unmarked) [Propargite] : 5.73
20) COC(=O)c1c(C(F)F)nc(C(F)(F)F)c(C2=NCCS2)c1CC(C)C [Thiazopyr] : 5.71
21) CC1COC(Cn2cncn2)(c2ccc(Oc3ccc(Cl)cc3)cc2Cl)O1 (centres unmarked) [Difenoconazole] : 7.10
22) CC(C)(C(=O)c1cccnc1)c1cccnc1 [Metyrapone] : 6.24
23) Clc1ccccc1-c1nc(-c2ccncc2)no1 [Pifexole] : 4.47
24) C[Si](Cn1cncn1)(c1ccc(F)cc1)c1ccc(F)cc1 [Flusilazole] : 6.80
25) CCCCC(O)(Cn1cncn1)c1ccc(Cl)cc1Cl (centres unmarked) [Hexaconazole] : 6.96
26) O=C1c2ccccc2C(=O)C1C(=O)C(c1ccccc1)c1ccc(Cl)cc1 (centres unmarked) [Chlorophacinone] : 4.47
27) COP(=S)(Oc1cc(Cl)c(Br)cc1Cl)c1ccccc1 (centres unmarked) [Leptophos] : 5.13
28) OCc1c2ccccc2cc2ccccc12 [9-Anthracenemethanol] : 4.53
29) CCN(Cc1c(F)cccc1Cl)c1c([N+](=O)[O-])cc(C(F)(F)F)cc1[N+](=O)[O-] [Flumetralin] : 6.42
30) COC(=O)N(C(=O)N1CO[C@@]2(C(=O)OC)Cc3cc(Cl)ccc3C2=N1)c1ccc(OC(F)(F)F)cc1 [Indoxacarb] : 5.58
31) CCCC1COC(Cn2cncn2)(c2ccc(Cl)cc2Cl)O1 (centres unmarked) [Propiconazole] : 7.22
32) CCOP(=S)(OCC)SCn1c(=O)oc2cc(Cl)ccc21 [Phosalone] : 6.52
33) Fc1ccc([C@]2(Cn3cncn3)O[C@H]2c2ccccc2Cl)cc1 (racemic) [Epoxiconazole] : 6.04
34) Nc1ccc2c(c1)C(=O)c1ccccc1C2=O [2-Aminoanthraquinone] : 5.79
35) CO/N=C(/C(=O)OC)c1ccccc1COc1ccccc1C [Kresoxim-methyl] : 5.02
36) CN(C)c1ccc(Cc2ccc(N(C)C)cc2)cc1 [4,4'-Methylenebis(N,N-dimethylaniline)] : 4.70
37) O=C1C(Cl)C(CCl)CN1c1cccc(C(F)(F)F)c1 (centres unmarked) [Flurochloridone] : 5.16
38) COP(=S)(OC)Oc1ccc(S(=O)(=O)N(C)C)cc1 [Famphur] : 5.04

Taken from paper PMC12155096.
